Target: T1, Human BCMA (human, UniProt Q02223 1-54, limits assumed)
T1 construct: Soluble analyte in SPR; construct not described; also called huBCMA; B-cell maturation antigen
T1 sequence (looked up): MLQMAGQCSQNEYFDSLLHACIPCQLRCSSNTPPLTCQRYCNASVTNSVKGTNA
Assay: SPR, IgG immobilised, 37 C
Readout Name: T ½
Write the figure, then the unit, nothing else.

[
  {
    "Binder": "L3.PY/L3.KY/H2.QL (antibody, V domains shown, IgG) VH: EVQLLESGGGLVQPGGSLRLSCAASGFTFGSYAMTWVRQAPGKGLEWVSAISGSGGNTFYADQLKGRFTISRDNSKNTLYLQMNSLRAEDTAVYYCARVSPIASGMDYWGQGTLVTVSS VL: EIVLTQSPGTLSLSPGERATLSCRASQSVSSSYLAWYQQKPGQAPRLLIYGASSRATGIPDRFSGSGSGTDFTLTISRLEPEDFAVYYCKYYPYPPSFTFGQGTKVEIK",
    "T ½": "5.56 min"
  },
  {
    "Binder": "L3.PY/L1.PH/H2.QR (antibody, V domains shown, IgG) VH: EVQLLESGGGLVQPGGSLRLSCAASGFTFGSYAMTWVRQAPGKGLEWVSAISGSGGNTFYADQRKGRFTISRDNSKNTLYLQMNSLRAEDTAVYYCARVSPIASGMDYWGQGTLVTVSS VL: EIVLTQSPGTLSLSPGERATLSCRASQSVSPHYLAWYQQKPGQAPRLLIYGASSRATGIPDRFSGSGSGTDFTLTISRLEPEDFAVYYCQHYPYPPSFTFGQGTKVEIK",
    "T ½": "4.89 min"
  }
]

Now turn to the next binder.
Data request, read-out T ½, for L3.PY/L1.PH/P6E01 (antibody, V domains shown, IgG) VH: EVQLLESGGGLVQPGGSLRLSCAASGFTFGSYAMTWVRQAPGKGLEWVSAISGSGGNTFYADSVKGRFTISRDNSKNTLYLQMNSLRAEDTAVYYCARVSPIASGMDYWGQGTLVTVSS VL: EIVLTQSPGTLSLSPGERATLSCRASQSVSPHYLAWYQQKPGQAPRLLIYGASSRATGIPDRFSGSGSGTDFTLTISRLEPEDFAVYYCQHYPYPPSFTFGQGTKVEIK
12.7 min

Cited source for all entries: patent US20160297884A1
